Assign Ranking score to each entry below.
molecular target: human NTCP (Homo sapiens, UniProt Q14973); assay: Screening taurocholate uptake assay (96-well, [14C]taurocholate, 10 µM drug)
Sequence (Q14973 whole entry): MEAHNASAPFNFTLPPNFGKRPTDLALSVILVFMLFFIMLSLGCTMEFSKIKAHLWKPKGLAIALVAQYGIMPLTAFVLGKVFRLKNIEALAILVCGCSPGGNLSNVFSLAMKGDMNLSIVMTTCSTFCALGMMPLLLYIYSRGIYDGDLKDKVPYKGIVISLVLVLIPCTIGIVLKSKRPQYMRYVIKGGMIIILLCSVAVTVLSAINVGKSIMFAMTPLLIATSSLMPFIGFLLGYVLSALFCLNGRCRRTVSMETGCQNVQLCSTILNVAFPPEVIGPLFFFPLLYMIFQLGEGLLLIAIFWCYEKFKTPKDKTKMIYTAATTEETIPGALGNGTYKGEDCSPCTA
Where a name gives a salt, the structure may show the parent alone.
// response body must contain only the number

What Ranking score value was documented for this molecule, CN[C@H](CC(C)C)C(=O)N[C@H]1C(=O)N[C@@H](CC(N)=O)C(=O)N[C@H]2C(=O)N[C@H]3C(=O)N[C@H](C(=O)N[C@H](C(=O)O)c4cc(O)cc(O)c4-c4cc3ccc4O)[C@H](O)c3ccc(c(Cl)c3)Oc3cc2cc(c3O[C@@H]2O[C@H](CO)[C@@H](O)[C@H](O)[C@H]2O[C@H]2C[C@](C)(N)[C@H](O)[C@H](C)O2)Oc2ccc(cc2Cl)[C@H]1O [Vancomycin hydrochloride] ? 571.108

Could you do the same for CNS(=O)(=O)Cc1ccc2[nH]cc(CCN(C)C)c2c1 [Sumatriptan succinate] , please? 810.351
